assayed-system: T1, corticotropin-releasing hormone (CRH) peptide (human and mouse, UniProt P01143 145-185 (rat entry), not fully specified)
T1 peptide: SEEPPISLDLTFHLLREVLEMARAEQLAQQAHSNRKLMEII
assay-comment: cell-based or functional assay
property: hCRHR1-Luc 0.5 nM CRH IC50 (nM)
Answer in nM, number only, no unit symbol.

# count of solved cases: 2
{"columns": ["binder", "observed-value"],
 "data": [
  ["PR302309-1 (antibody, human IgG1, kappa, V domains shown) VH: QIQLVQSGPELKKPGETVKISCKASGYTFTNYGMNWVKQAPGKVLKWMGWINTYTGEPIYTDDFKGRFAFSLETSASTAYLQINNLKNEDTATYFCSRSTMITTGGVFAYWGQGTLVTVSA VL: DVVMTQSPLSLPVTLGQPASISCRSSQTIVHSDGNTYLEWFQQRPGQSPRRLIYKVSNRFSGVPDRFSGSGSGTDFTLKISRVEAEDVGVYYCFQGSHVPWTFGGGTKVEIKR", 4.42],
  ["PR302309-8 (antibody, human IgG1, kappa, V domains shown) VH: QIQLVQSGSELKKPGASVKVSCKASGYTFTNYGMNWVRQAPGQGLEWMGWINTYTGEPIYTDDFKGRFVFSLDTSVSTAYLQISSLKAEDTAVYYCSRSTMITTGGVFAYWGQGTLVTVSS VL: DVVMTQSPLSLPVTLGQPASISCRSSQTIVHSDGNTYLEWYQQRPGQSPRLLIYKVSNRFSGVPDRFSGSGSGTDFTLKISRVEAEDLGVYYCFQGSHVPWTFGGGTKVEIKR", 1.7]
]}

Report hCRHR1-Luc 0.5 nM CRH IC50, nothing else, for this binder: PR302309-6 (antibody, human IgG1, kappa, V domains shown) VH: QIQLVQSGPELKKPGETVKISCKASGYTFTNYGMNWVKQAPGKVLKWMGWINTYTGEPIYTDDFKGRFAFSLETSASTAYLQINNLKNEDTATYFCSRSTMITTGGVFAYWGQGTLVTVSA VL: DVVMTQTPLSSPVTLGQPASISCRSSQTIVHSDGNTYLEWYQQRPGQPPRLLIYKVSNRFSGVPDRFSGSGAGTDFTLKISRVEAEDLGVYYCFQGSHVPWTFGGGTKVEIKR
1.08
